Listed next: entries and their corresponding NF-kB SEAP reporter activity.
# Test system: RAW-Dual
# protocolSummary: NF-kB SEAP reporter activity, fold change vs agonist alone; higher = enhanced NF-kB activity
# settings: library stock concentration (final ~1000-fold dilution): 2 mM; cytotoxicity flag (confluency mask): not cytotoxic; agonist: Imiquimod (TLR7) […]
The full ranking holds about 2,900 compounds; the median of “NF-kB SEAP reporter activity, fold change vs agonist alone” is about 0.99, and the highest 2% start at about 2.6. Shown is part of a subset that was picked to be rich in the highest values.

Some molecules with recorded NF-kB SEAP reporter activity:
INSERT INTO measurements (molecule, readoutvalue) VALUES
  ('c1ccc(-c2nn3c(c2-c2ccnc4cc(OCCN5CCOCC5)ccc24)CCC3)nc1', 0.793),
  ('C=CC(=O)Nc1cc(Nc2nccc(-n3cc(CN(C)C)c(-c4ccccc4)n3)n2)c(OC)cc1N1CCOCC1', 1.12);

stdin: Could you share which NF-kB SEAP reporter activity value was measured for `c1cc(-c2cnn3cc(-c4ccc(OCCN5CCCCC5)cc4)cnc23)ccn1` ?
stdout: 0.841

stdin: Could you share which NF-kB SEAP reporter activity value was measured for `O=c1cc(N2CCOCC2)oc2c1ccc1ccccc12` ?
stdout: 1.04
